Experiment: Cytotoxicity against human HeLa cells assessed as decrease in cell viability at 500 uM measured after 24 hrs relative to 2% DMSO control
Format: cell-based
Settings: read-out: INH
property: cytotoxicity at 24 h, 500 µM (%)
API: value field is a number in %; no unit string.

                                   molecule  recorded_number
0  CN1c2ccccc2C(C)(C)C12C=Cc1c(ccc3ccc(O)cc13)O2 (stereo not drawn)             11.9
1  COc1ccc2c(c1)C(C)(C)C1(C=Cc3c(ccc4ccc(OC(=O)CCCCC5CCSS5)cc34)O1)N2C (stereo not drawn)              8.3

Then this molecule:
Data point: COc1ccc2c(c1)C(C)(C)C1(C=Cc3c(ccc4ccc(O)cc34)O1)N2C (stereo not drawn) ; cytotoxicity at 24 h, 500 µM = 98.4

---

Test: Cytotoxicity against human HeLa cells assessed as effect on cell viability at 500 uM measured after 24 hrs (Rvb (2% DMSO) = 93.5 +/- 3.19 %)
Format: cell-based
Settings: read-out: Activity
property: viability at 24 h, 500 µM (%)
API: value field is a number in %; no unit string.

Here is how some molecules turned out for viability at 24 h, 500 µM.
>>> df
                                   molecule                   property  recorded_number
0  CN1c2ccccc2C(C)(C)C12C=Cc1c(ccc3ccc(OC(=O)CCCCC4CCSS4)cc13)O2 (stereo not given)  viability at 24 h, 500 µM               95
1  CN1c2ccccc2C(C)(C)C12C=Cc1c(ccc3ccc(O)cc13)O2 (stereo not given)  viability at 24 h, 500 µM             84.5
2  COc1ccc2c(c1)C(C)(C)C1(C=Cc3c(ccc4ccc(OC(=O)CCCCC5CCSS5)cc34)O1)N2C (stereo not given)  viability at 24 h, 500 µM             89.3

Data point: COc1ccc2c(c1)C(C)(C)C1(C=Cc3c(ccc4ccc(O)cc34)O1)N2C (stereo not given) ; viability at 24 h, 500 µM = 4.19

Data point: O=C(O)CCCCC1CCSS1 (stereo not drawn) [LIPOIC ACID, ALPHA] ; viability at 24 h, 500 µM = 94.7

---

Assay: Cytotoxicity against human HeLa cells assessed as decrease in cell viability at 2 mM measured after 24 hrs relative to 8% DMSO control
Assay type: cell-based
Settings: read-out: INH
Some compounds, each annotated with its measured cytotoxicity at 24 h, 2000 µM.
API: value field is a number in %; no unit string.

>>> df
                                   compound  recorded_number
0  COc1ccc2c(c1)C(C)(C)C1(C=Cc3c(ccc4ccc(O)cc34)O1)N2C (configuration not stated)             93.7

Then this compound:
Data point: O=C(O)CCCCC1CCSS1 (configuration not stated) ; cytotoxicity at 24 h, 2000 µM = 32.7

---

Assay: Cytotoxicity against human HeLa cells assessed as effect on cell viability at 2 mM measured after 24 hrs (Rvb (8% DMSO) = 79.08 +/- 10.78 %)
Assay type: cell-based
Conditions: read-out: Activity
Labelling field: enter satisfied if recorded viability at 24 h, 2000 µM is less than 70%. Enter not satisfied if it equals or exceeds that cut-off.

In [3]: df
Out[3]:
                                   compound    label_value
0      O=C(O)CCCCC1CCSS1 (stereo not given)      satisfied
1  CN1c2ccccc2C(C)(C)C12C=Cc1c(ccc3ccc(OC(=O)CCCCC4CCSS4)cc13)O2 (stereo not given)  not satisfied
2  COc1ccc2c(c1)C(C)(C)C1(C=Cc3c(ccc4ccc(O)cc34)O1)N2C (stereo not given)      satisfied

Inquiry: Item COc1ccc2c(c1)C(C)(C)C1(C=Cc3c(ccc4ccc(OC(=O)CCCCC5CCSS5)cc34)O1)N2C (stereo not given) : viability at 24 h, 2000 µM beneath 70%, strictly?
Reply text: not satisfied

Inquiry: Item CN1c2ccccc2C(C)(C)C12C=Cc1c(ccc3ccc(O)cc13)O2 (stereo not given) : viability at 24 h, 2000 µM beneath 70%, strictly?
Reply text: satisfied
